Data origin, for the record: patent US20260327214A1

Molecular target: human recombinant HDAC6 (Homo sapiens)
Sequence (Q9UBN7 1-1215): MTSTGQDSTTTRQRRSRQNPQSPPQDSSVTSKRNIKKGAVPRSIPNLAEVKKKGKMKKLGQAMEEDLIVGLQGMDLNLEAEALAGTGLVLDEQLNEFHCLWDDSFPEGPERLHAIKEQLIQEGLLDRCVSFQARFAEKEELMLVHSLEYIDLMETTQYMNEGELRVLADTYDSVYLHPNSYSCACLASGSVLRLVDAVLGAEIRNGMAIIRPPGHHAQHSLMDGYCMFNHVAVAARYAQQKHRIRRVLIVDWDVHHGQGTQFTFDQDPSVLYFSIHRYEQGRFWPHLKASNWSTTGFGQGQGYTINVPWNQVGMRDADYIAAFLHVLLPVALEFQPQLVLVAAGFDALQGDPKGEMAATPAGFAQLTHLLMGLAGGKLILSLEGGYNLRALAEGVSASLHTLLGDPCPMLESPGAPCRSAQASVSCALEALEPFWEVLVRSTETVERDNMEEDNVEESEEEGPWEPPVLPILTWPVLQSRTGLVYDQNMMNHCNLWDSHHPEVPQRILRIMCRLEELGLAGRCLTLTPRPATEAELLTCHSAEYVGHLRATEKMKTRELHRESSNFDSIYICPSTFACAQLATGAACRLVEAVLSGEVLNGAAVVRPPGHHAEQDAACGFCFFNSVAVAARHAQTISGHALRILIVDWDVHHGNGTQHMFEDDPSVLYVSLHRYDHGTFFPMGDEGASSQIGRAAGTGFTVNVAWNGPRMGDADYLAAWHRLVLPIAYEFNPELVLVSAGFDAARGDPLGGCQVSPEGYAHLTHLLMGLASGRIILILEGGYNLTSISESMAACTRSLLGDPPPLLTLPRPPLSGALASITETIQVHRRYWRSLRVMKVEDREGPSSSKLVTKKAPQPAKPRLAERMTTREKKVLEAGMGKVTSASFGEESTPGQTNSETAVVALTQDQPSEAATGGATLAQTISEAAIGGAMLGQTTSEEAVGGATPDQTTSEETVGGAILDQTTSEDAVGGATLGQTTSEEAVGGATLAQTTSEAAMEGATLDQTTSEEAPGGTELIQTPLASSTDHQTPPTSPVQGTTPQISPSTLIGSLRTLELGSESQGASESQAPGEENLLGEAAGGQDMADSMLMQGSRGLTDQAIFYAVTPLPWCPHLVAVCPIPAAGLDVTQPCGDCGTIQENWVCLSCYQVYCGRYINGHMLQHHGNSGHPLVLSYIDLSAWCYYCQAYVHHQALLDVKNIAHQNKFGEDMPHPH
Test: HDAC6 enzyme activity inhibition test (HDAC Fluorometric Drug Discovery Kit)
Details: human recombinant HDAC6; same protocol as HDAC1
quantity: pIC50
API: returns pIC50 as number; meaning -log10 of concentration in mol/L.

Worked cases, answers included:
{"line notation": "Fc1cc(-c2nnc(C(F)F)o2)cnc1Cn1nc(-c2cccc(CN3CCCCC3)c2)oc1=S", "test target": "human recombinant HDAC6 (Homo sapiens)", "pIC50": 7.07}
{"line notation": "Cn1ccc2cc(-c3nn(Cc4ccc(-c5nnc(C(F)F)o5)cn4)c(=O)o3)ccc21", "test target": "human recombinant HDAC6 (Homo sapiens)", "pIC50": 7.48}
{"line notation": "CN(C)Cc1ccc(-c2nn(Cc3ncc(-c4nnc(C(F)F)o4)cc3F)c(=S)o2)cc1", "test target": "human recombinant HDAC6 (Homo sapiens)", "pIC50": 7.37}
{"line notation": "CC(C)N1CCN(c2cccc(-c3nn(Cc4ccc(-c5nnc(C(F)F)o5)cn4)c(=S)o3)c2)CC1", "test target": "human recombinant HDAC6 (Homo sapiens)", "pIC50": 7.28}

Please examine the following record next.
(Q) Report pIC50 for `Fc1cc(-c2nnc(C(F)F)o2)cnc1Cn1nc(-c2cccc(CN3CCC3)c2)oc1=S`
(A) 7.17
